details: 328.15 K; 101.33 kPa; Liquid; Vibrating tube method
± gives the expanded uncertainty stated by the source.

{"compound": "CCCC[S+]1CCCC1.O=S(=O)([N-]S(=O)(=O)C(F)(F)F)C(F)(F)F", "mass density": "1427.3 ± 11 kg/m3"}
{"compound": "CCCCCCCC[P+](CC)(CC)CC.O=[N+]([O-])c1cn[n-]c1 [triethyloctylphosphonium 4-nitropyrazolide]", "mass density": "1013.2 ± 5.5 kg/m3"}
{"compound": "CCCC[n+]1cccn1C.O=S(=O)([N-]S(=O)(=O)C(F)(F)F)C(F)(F)F [1-butyl-2-methylpyrazolium bis(trifluoromethylsulfonyl)imide]", "mass density": "1423 ± 11 kg/m3"}
{"compound": "CCC[n+]1ccn(C)c1C.O=[N+]([O-])c1cn[n-]c1 [1,2-dimethyl-3-propylimidazolium 4-nitropyrazolide]", "mass density": "1162.5 ± 7.3 kg/m3"}
{"compound": "CCCCCCCCSC(N(C)C)=[N+](C)C.O=S(=O)([N-]S(=O)(=O)C(F)(F)F)C(F)(F)F", "mass density": "1271.3 ± 8.8 kg/m3"}
{"compound": "CCCC[P+](CC)(CC)CC.Cc1ncc([N+](=O)[O-])[n-]1 [butyltriethylphosphonium 2-methyl-5-nitroimidazolide]", "mass density": "1047.8 ± 5.9 kg/m3"}
{"compound": "CC(=O)[O-].CCCCCCn1cc[n+](C)c1 [3-hexyl-1-methylimidazolium acetate]", "mass density": "998.5 ± 5.4 kg/m3"}
{"compound": "CCCCCCn1cc[n+](C)c1C.O=[N+]([O-])c1cn[n-]c1 [1-hexyl-2,3-dimethylimidazolium 4-nitropyrazolide]", "mass density": "1099.7 ± 6.6 kg/m3"}
{"compound": "CCCCCCCC[P+](CC)(CC)CC.O=[N+]([O-])c1c[n-]cn1 [triethyloctylphosphonium 4-nitroimidazolide]", "mass density": "1011.4 ± 5.5 kg/m3"}
{"compound": "CCCCCCCC[P+](CC)(CC)CC.O=S(=O)([N-]S(=O)(=O)C(F)(F)F)C(F)(F)F [triethyloctylphosphonium bis(trifluoromethylsulfonyl)imide]", "mass density": "1220.2 ± 8.1 kg/m3"}
{"compound": "CCCCCCCCCCCCCC[P+](CCCCCC)(CCCCCC)CCCCCC.Clc1nc[n-]c1Cl [trihexyl(tetradecyl)phosphonium 4,5-dichloroimidazolide]", "mass density": "946.2 ± 4.9 kg/m3"}
{"compound": "CCCCCCC[P+](CC)(CC)CC.O=[N+]([O-])c1cn[n-]c1 [triethylheptylphosphonium 4-nitropyrazolide]", "mass density": "1020.2 ± 5.6 kg/m3"}
{"compound": "CCCCCCCCCCCCCC[P+](CCCCCC)(CCCCCC)CCCCCC.N#Cc1nc[n-]c1C#N [trihexyl(tetradecyl)phosphonium 4,5-dicyanoimidazolide]", "mass density": "902.4 ± 4.5 kg/m3"}
{"compound": "CC(=O)[O-].CCCCCCCCCCCCCC[P+](CCCCCC)(CCCCCC)CCCCCC [trihexyl(tetradecyl)phosphonium acetate]", "mass density": "867.7 ± 4.3 kg/m3"}
{"compound": "CC[P+](CC)(CC)COCCOC.O=[N+]([O-])c1cn[n-]c1", "mass density": "1118.9 ± 6.8 kg/m3"}
{"compound": "CCC=Cn1cc[n+](C)c1C.O=[N+]([O-])c1cn[n-]c1 [1-but-1-enyl-2,3-dimethylimidazolium 4-nitropyrazolide]", "mass density": "1161.1 ± 7.3 kg/m3"}
{"compound": "CCCCCCn1cc[n+](C)c1.O=[N+]([O-])c1cn[n-]c1 [1-hexyl-3-methylimidazolium 4-nitropyrazolide]", "mass density": "1103.8 ± 6.6 kg/m3"}
{"compound": "CCCCCCSC(N(C)C)=[N+](C)C.O=S(=O)([N-]S(=O)(=O)C(F)(F)F)C(F)(F)F", "mass density": "1312.8 ± 9.4 kg/m3"}
{"compound": "CCCCCCCCCCCCCC[P+](CCCCCC)(CCCCCC)CCCCCC.O=S(=O)([N-]S(=O)(=O)C(F)(F)F)C(F)(F)F", "mass density": "1043.7 ± 5.9 kg/m3"}
{"compound": "CCCCCCn1cc[n+](C)c1.N#Cc1ccc[n-]1 [1-hexyl-3-methylimidazolium 2-cyanopyrrolide]", "mass density": "1003.9 ± 5.4 kg/m3"}
{"compound": "CCCCCCCCCCCCCC[P+](CCCCCC)(CCCCCC)CCCCCC.Cc1ncc([N+](=O)[O-])[n-]1 [trihexyl(tetradecyl)phosphonium 2-methyl-5-nitroimidazolide]", "mass density": "921.1 ± 4.7 kg/m3"}
{"compound": "CCCC[P+](CC)(CC)CC.O=[N+]([O-])c1cn[n-]c1 [butyltriethylphosphonium 4-nitropyrazolide]", "mass density": "1060.3 ± 6.1 kg/m3"}
{"compound": "CCCCCCCCCCCCCC[P+](CCCCCC)(CCCCCC)CCCCCC.O=[N+]([O-])c1c[n-]cn1 [trihexyl(tetradecyl)phosphonium 4-nitroimidazolide]", "mass density": "922.6 ± 4.7 kg/m3"}
{"compound": "CCCCCCCCC[P+](CC)(CC)CC.O=[N+]([O-])c1cn[n-]c1 [triethylnonylphosphonium 4-nitropyrazolide]", "mass density": "1004 ± 5.4 kg/m3"}
{"compound": "CC[P+](CC)(CC)COCCOC.O=S(=O)([N-]S(=O)(=O)C(F)(F)F)C(F)(F)F", "mass density": "1333.4 ± 9.7 kg/m3"}
{"compound": "CCCCCC[n+]1ccn(C)c1.O=S(=O)([N-]S(=O)(=O)C(F)(F)F)C(F)(F)F", "mass density": "1345.8 ± 9.9 kg/m3"}
{"compound": "CCCCCCCCCCCCCC[P+](CCCCCC)(CCCCCC)CCCCCC.O=[N+]([O-])c1cn[n-]c1 [trihexyl(tetradecyl)phosphonium 4-nitropyrazolide]", "mass density": "921.6 ± 4.7 kg/m3"}
{"compound": "CCCCCCCC[P+](CC)(CC)CC.Cc1ncc([N+](=O)[O-])[n-]1 [triethyloctylphosphonium 2-methyl-5-nitroimidazolide]", "mass density": "1011.2 ± 5.5 kg/m3"}
{"compound": "CCCCCCCCCC[P+](CC)(CC)CC.O=[N+]([O-])c1cn[n-]c1 [decyltriethylphosphonium 4-nitropyrazolide]", "mass density": "993.3 ± 5.3 kg/m3"}

---

settings: 288.15 K; 101.33 kPa; Liquid; Cone and plate viscometry
Overview of recorded viscosity for various compounds

{"compound": "CCCC[P+](CC)(CC)CC.Cc1ncc([N+](=O)[O-])[n-]1 [butyltriethylphosphonium 2-methyl-5-nitroimidazolide]", "viscosity / mPa·s": 858}
{"compound": "CC[P+](CC)(CC)COCCOC.Cc1ncc([N+](=O)[O-])[n-]1", "viscosity / mPa·s": 264}
{"compound": "CCCCCCCCCC[P+](CC)(CC)CC.O=[N+]([O-])c1cn[n-]c1 [decyltriethylphosphonium 4-nitropyrazolide]", "viscosity / mPa·s": 678}
{"compound": "CCCCCCn1cc[n+](C)c1.N#Cc1ccc[n-]1 [1-hexyl-3-methylimidazolium 2-cyanopyrrolide]", "viscosity / mPa·s": 553}
{"compound": "CCOCc1n(CC)cc[n+]1C.O=S(=O)([N-]S(=O)(=O)C(F)(F)F)C(F)(F)F", "viscosity / mPa·s": 111}
{"compound": "CCCCCCn1cc[n+](C)c1.O=[N+]([O-])c1cn[n-]c1 [1-hexyl-3-methylimidazolium 4-nitropyrazolide]", "viscosity / mPa·s": 1040}
{"compound": "CCCCCCCCCCCCCC[P+](CCCCCC)(CCCCCC)CCCCCC.N#Cc1nc[n-]c1C#N [trihexyl(tetradecyl)phosphonium 4,5-dicyanoimidazolide]", "viscosity / mPa·s": 1090}
{"compound": "CCCC[S+]1CCCCC1.O=S(=O)([N-]S(=O)(=O)C(F)(F)F)C(F)(F)F [1-butylthianium bis(trifluoromethylsulfonyl)imide]", "viscosity / mPa·s": 200}

---

conditions: Glass; DSC
Quick list: Glass transition temperature per entry.
recorded.metric: Glass transition temperature (°C)

{"molecule": "CCOCc1n(CC)cc[n+]1C.O=S(=O)([N-]S(=O)(=O)C(F)(F)F)C(F)(F)F", "recorded.metric": "Glass transition temperature", "recorded.measurement": -78}
{"molecule": "CCCCCCCCC[P+](CC)(CC)CC.O=[N+]([O-])c1cn[n-]c1 [triethylnonylphosphonium 4-nitropyrazolide]", "recorded.metric": "Glass transition temperature", "recorded.measurement": -72}
{"molecule": "CCCCCCn1cc[n+](C)c1C.O=[N+]([O-])c1cn[n-]c1 [1-hexyl-2,3-dimethylimidazolium 4-nitropyrazolide]", "recorded.metric": "Glass transition temperature", "recorded.measurement": -47}
{"molecule": "CCCCCCn1cc[n+](C)c1.N#Cc1ccc[n-]1 [1-hexyl-3-methylimidazolium 2-cyanopyrrolide]", "recorded.metric": "Glass transition temperature", "recorded.measurement": -65}
{"molecule": "CCCCCCSC(N(C)C)=[N+](C)C.O=S(=O)([N-]S(=O)(=O)C(F)(F)F)C(F)(F)F", "recorded.metric": "Glass transition temperature", "recorded.measurement": -82}
{"molecule": "CCCCCCCCCCCCCC[P+](CCCCCC)(CCCCCC)CCCCCC.O=S(=O)([N-]S(=O)(=O)C(F)(F)F)C(F)(F)F", "recorded.metric": "Glass transition temperature", "recorded.measurement": -82}
{"molecule": "CCCCCCCC[P+](CC)(CC)CC.Cc1ncc([N+](=O)[O-])[n-]1 [triethyloctylphosphonium 2-methyl-5-nitroimidazolide]", "recorded.metric": "Glass transition temperature", "recorded.measurement": -67}
{"molecule": "CCCCCCCCCCCCCC[P+](CCCCCC)(CCCCCC)CCCCCC.N#Cc1nc[n-]c1C#N [trihexyl(tetradecyl)phosphonium 4,5-dicyanoimidazolide]", "recorded.metric": "Glass transition temperature", "recorded.measurement": -78}
